- system.name: Brd4 (L) (Homo sapiens, UniProt O60885)
- Construct: endogenous in cells; host or cells: HEK293, HeLa
- protocol.notes: Time-dependent BET degradation, immunoblot, HEK293 cells
- Assay type: cell-based
- Set-up: dose or concentration left out as unconfirmed
- test.conditions: timecourse 0-8 h
recorded.endpoint: Dmax (%)

- compound: "CCCC(NC(=O)/C(C#N)=C/c1cccc(Br)n1)c1ccc(OCC=NOCC(=O)NCCOCCOCCOCCNC(=O)c2ccc3c(c2)[C@H](Nc2ccc(Cl)cc2)C[C@H](C)N3C(C)=O)cc1 (stereo partly drawn)"
  system.name: "Brd4 (L) (Homo sapiens, UniProt O60885)"
  unit.abbrev: "%"
  Dmax: 100
- compound: "CCCC(NC(=O)/C(C#N)=C/c1nccs1)c1ccc(OCCOCCOCCOCCOCCOCCOCCNC(=O)c2ccc(-c3ccc4c(c3)[C@H](Nc3ccc(Cl)cc3)C[C@H](C)N4C(C)=O)cc2)cc1 (stereo partly drawn)"
  system.name: "Brd4 (L) (Homo sapiens, UniProt O60885)"
  unit.abbrev: "%"
  Dmax: 96
- compound: "CCCC(NC(=O)/C(C#N)=C/c1cccc(Br)n1)c1ccc(OCC=NOCC(=O)NCCOCCNC(=O)c2ccc3c(c2)[C@H](Nc2ccc(Cl)cc2)C[C@H](C)N3C(C)=O)cc1 (stereo partly drawn)"
  system.name: "Brd4 (L) (Homo sapiens, UniProt O60885)"
  unit.abbrev: "%"
  Dmax: 100
